# ASSAY_DETAILS: Toxicity liver stage against HepG2, at 10uM
# Type: cell-based
# Design: test concentration 10 uM, cell line HepG2-A16-CD81EGFP
# STUDY_CONDITIONS: human, HepG2-A16-CD81EGFP cells; read-out: INHIBITION
Below is a list of entries, each paired with its recorded cytotoxicity at 10 µM value.
RECORDED_METRIC: cytotoxicity at 10 µM

COMPOUND: CC(C)c1nn(C)c(N(C)C)c1CNC(C)c1ccc2c(c1)OCO2 (centres undefined)
RESULT: -4.49%
--
COMPOUND: CCOCC1CN(c2ncccn2)Cc2cnn(CC3CCOCC3)c21 (centres undefined)
RESULT: 2.97%
--
COMPOUND: CC(=O)c1sc2nc3c(c(C(F)(F)F)c2c1N)CN(C(C)=O)CC3
RESULT: -26%
--
COMPOUND: Cc1ccc(CN(CCN(C)C)C(=O)Nc2cc(C(N)=O)ccc2C)s1
RESULT: 13.1%
--
COMPOUND: CCCC(=O)N(CCCN1CCOCC1)c1nc2c(Cl)cccc2s1
RESULT: -12.8%
--
COMPOUND: CNC(=O)Cc1ccc(NC(=O)NCc2nc(C)sc2C)cc1
RESULT: -4.36%
--
COMPOUND: Cc1nn(C2CCCC2)c2c1C(c1ccc3c(c1)OCO3)SCC(=O)N2 (centres undefined)
RESULT: -1.52%
--
COMPOUND: Cc1cc(O)ccc1-c1cc(-c2cnn(C)c2C2CC2)c(C#N)c(N)n1
RESULT: 40.2%
--
COMPOUND: Cc1cc(C)c(CNC(=O)N2CCCN(C(=O)C(C)C)CC2)c(C)c1
RESULT: 12.3%
--
COMPOUND: CC(C)(NC(=O)C1CCCN(C2CCCC2)C1)c1nnc(N)s1 (centres undefined)
RESULT: 3.27%
--
COMPOUND: CC(C)=CCN1C(=O)[C@@H]2CC[C@H]1CN(c1ncccc1C(N)=O)C2
RESULT: 6.13%
--
COMPOUND: CN(C)CCN1C[C@@H]2CN(S(=O)(=O)c3cccs3)C[C@@H]2C1=O
RESULT: 0.0221%
--
COMPOUND: CCN(CC)C(=O)CN1CCCC1C(=O)N(C)C (centres undefined)
RESULT: 12.5%
--
COMPOUND: CSC1(CNC(=O)NC(C)c2ccc(F)c(F)c2)CCOCC1 (centres undefined)
RESULT: 1.71%
--
COMPOUND: CCn1cc(CN2CCN(Cc3cccc(OC)c3)C(=O)C2)cc1C#N
RESULT: 2.96%
--
COMPOUND: Cc1ccnc(OCC(=O)N2CCN(c3ncccn3)CC2)n1
RESULT: -0.849%
--
COMPOUND: CC(C)c1nc2c(n1C)CCN(Cc1nc(-c3ccco3)no1)C2
RESULT: -0.403%
--
COMPOUND: CC(=O)N1CCCC(c2ccc(Cc3ccccc3)cn2)C1 (centres undefined)
RESULT: -20.6%
--
COMPOUND: CCc1n[nH]c(C2CN(Cc3ncc(CC)o3)CCO2)n1 (centres undefined)
RESULT: -9.79%
--
COMPOUND: Cc1csc(NC(=O)CN2CCc3c(nc(C4CC4)n3C)C2)n1
RESULT: -6.6%
--
COMPOUND: NC(=O)C1CN(Cc2c(O)ccc3oc4c(c23)CCCC4)CCO1 (centres undefined)
RESULT: 4.48%
--
COMPOUND: CC(C)(C)c1nc(NS(=O)(=O)c2ccccc2F)no1
RESULT: -1.45%
--
COMPOUND: Cc1ccsc1CN(Cc1ccccn1)CC(C)C
RESULT: -13.4%
--
COMPOUND: O=C(NCCc1cc(N2CCOCC2)nc(NC2CC2)n1)C1CC1
RESULT: -0.995%

Source of measurements: ChEMBL document CHEMBL4513216
